Recorded inhibition for the following molecules
System: Anti-Target ABHD10
Assay summary: PME-1 inhibitors in HeLa proteome, late-stage follow-up, selectivity assay, cell lysate, gel-based competitive ABPP, fluorescence, powder samples (AID 463149);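 further: 0% = DMSO-treated band intensity and 100% = blank gel background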
Protocol conditions: HeLa soluble proteome, FP-Rh fluorescence, measured here: Anti-Target ABHD10, at 20 µM, stronger effect = higher value

Recorded results for 4 molecules are shown here.
>  <Smiles entry>
COC(=O)N1C(=O)[C@@](c2ccccc2)(C2CCCC2)N1C(=O)OC

>  <inhibition>
0%

$$$$
>  <Smiles entry>
CCOC(=O)N1C(=O)[C@@](c2ccc(Cl)cc2)(C(C)C)N1C(=O)OCC

>  <inhibition>
0%

$$$$
>  <Smiles entry>
CC[C@@]1(c2cccc(C)c2)C(=O)N(C(=O)OC)N1C(=O)OC

>  <inhibition>
50%

$$$$
>  <Smiles entry>
COC(=O)N1C(=O)[C@](c2ccccc2)(C2CCCCC2)N1C(=O)OC

>  <inhibition>
0%

$$$$

Pending molecule:
QUERY: Identify the reported inhibition for the following entry. `COC(=O)N1C(=O)[C@@](CC(C)C)(c2ccccc2)N1C(=O)OC`
RESULT: 0%
